test: folding stability dG unfold (combined trypsin and chymotrypsin); higher = more stable
Parameter folding stability dG unfold: see the listing below.
property_name: folding stability dG unfold (kcal/mol)

# residue_string, property_name, result_modifier, measured_result
rows = [
    ("SAGGNTIMIPMDPPQAREFAKNFIGEFLDQAEENPDRPIEIMVPGPEGRYITIRVDPKEGNLEIEVVPSAGG [r13_216_TrROS]", "folding stability dG unfold", "=", 0.125),
    ("DFLELPGGWKVTEILEKKRLSDGTVEIKAVVKDPNNPVETEIDVKIPIPEVPEVPVEVRLIPGTGELIGILS [r1_411_JUSTAS]", "folding stability dG unfold", "<", -1),
    ("SNYLMIRIKEIDPNNPNKIKIEDIHPMPDNGNVQINIEHPGQEIYVMFNSADDAEEFINTLLKNYGLKPESA [r9_258_TrROS]", "folding stability dG unfold", "=", 1.33),
    ("SAMNLRFPLSTEALAKLLENLTPDQTLELRVRIGDRWVRVRLEIHRIERKEDELRVEVTLEVEPLRPEDSAG [r14_335_TrMRF]", "folding stability dG unfold", "=", 3.35),
]

Hello, the source for this data is the supplement of paper PMC12764529, in case you need it.
